- TESTED_SYSTEM: CA VI-mimic (CA II mutant A65T, N67Q, F130Y, V134Q, L203T) (Homo sapiens, UniProt P00918, A65T/F130Y/L203T/N67Q/V134Q)
- Construct: encoding full length CA II (1-260), was used in site-directed mutagenesis; made in house; host or cells: E. coli BL21(DE3)
- PROCEDURE_TEXT: Fluorescent thermal shift assay (FTSA), inhibitor binding to CA VI-mimic
- PARTICULARS: FTSA, pH 7.0, 37 °C; read-out: Kd_obs CA VI-mimic
Quick reference: pKd of the listed items.
The scale used: pKd is minus the common logarithm of the concentration in molar units.

Examples from the recorded data:
>  <SAMPLE_SMILES>
NS(=O)(=O)c1c(F)c(F)c(S(=O)(=O)CCO)c(F)c1NCc1ccccc1

>  <MEASURED_RESULT>
6.85

$$$$
>  <SAMPLE_SMILES>
NS(=O)(=O)c1c(F)c(F)c(S(=O)(=O)CCc2ccccc2)c(NC2Cc3ccccc3C2)c1F

>  <MEASURED_RESULT>
6.00

$$$$
>  <SAMPLE_SMILES>
NS(=O)(=O)c1c(F)c(F)c(S(=O)(=O)CCc2ccccc2)c(N[C@H](c2ccccc2)[C@H](O)c2ccccc2)c1F

>  <MEASURED_RESULT>
5.70

$$$$

Proceeding to the next compound to report its pKd.
Q: Entry under review: `NS(=O)(=O)c1ccc(C(=O)CSc2ccccc2)cc1Cl` . Reported pKd?
A: 6.48

---

- TESTED_SYSTEM: CA VI-mimic (CA II mutant A65T, N67Q, F130Y, V134Q, L203T) (Homo sapiens, UniProt P00918, A65T/F130Y/L203T/N67Q/V134Q)
- Construct: encoding full length CA II (1-260), was used in site-directed mutagenesis; made in house; host or cells: E. coli BL21(DE3)
- PROCEDURE_TEXT: Fluorescent thermal shift assay (FTSA), inhibitor binding to CA VI-mimic
- PARTICULARS: FTSA, 37 °C
PROPERTY_MEASURED: difference between Kd_obs and Kd_intr for CA VI-mimic (fold)
The reply should contain only the number, in fold.

>  <SAMPLE_SMILES>
CCCSc1ccc(S(N)(=O)=O)cc1

>  <MEASURED_RESULT>
3200

$$$$

Proceeding to the next compound to report its difference between Kd_obs and Kd_intr for CA VI-mimic.
Q: Entry under review: `NS(=O)(=O)c1ccc(SCCc2ccccc2)cc1` . Reported difference between Kd_obs and Kd_intr for CA VI-mimic?
A: 2500

---

- TESTED_SYSTEM: CA VI-mimic (CA II mutant A65T, N67Q, F130Y, V134Q, L203T) (Homo sapiens, UniProt P00918, A65T/F130Y/L203T/N67Q/V134Q)
- Construct: encoding full length CA II (1-260), was used in site-directed mutagenesis; made in house; host or cells: E. coli BL21(DE3)
- PROCEDURE_TEXT: Fluorescent thermal shift assay (FTSA), inhibitor binding to CA VI-mimic
- PARTICULARS: FTSA, pH 7.0, 37 °C; read-out: Kd_obs CA VI-mimic
Quick reference: log10(Kd) of the listed items.
Log scale reminder: Kd in nM, then log10 taken.

Examples from the recorded data:
>  <SAMPLE_SMILES>
COc1ccc(CNc2c(F)c(SCCc3ccccc3)c(F)c(F)c2S(N)(=O)=O)cc1OC

>  <log10(Kd)>
3.52

$$$$
>  <SAMPLE_SMILES>
NS(=O)(=O)c1ccc(C(=O)Cn2c(Cc3ccccc3)nc3ccccc32)cc1Cl

>  <log10(Kd)>
2.52

$$$$
>  <SAMPLE_SMILES>
NS(=O)(=O)c1cccc(C(=O)Cn2cnc3ccccc32)c1

>  <log10(Kd)>
3.52

$$$$
>  <SAMPLE_SMILES>
CC(C)Nc1c(F)c(SCCc2ccccc2)c(F)c(F)c1S(N)(=O)=O

>  <log10(Kd)>
3.40

$$$$
>  <SAMPLE_SMILES>
COc1ccc(CNc2c(F)c(SCCO)c(F)c(F)c2S(N)(=O)=O)cc1OC

>  <log10(Kd)>
3.70

$$$$
>  <SAMPLE_SMILES>
NS(=O)(=O)c1c(F)c(F)c(S(=O)(=O)CCc2ccccc2)c(NCc2ccccc2)c1F

>  <log10(Kd)>
2.30

$$$$
>  <SAMPLE_SMILES>
NS(=O)(=O)c1cccc(C(=O)Cn2c(Cc3ccccc3)nc3ccccc32)c1

>  <log10(Kd)>
3.52

$$$$
>  <SAMPLE_SMILES>
NS(=O)(=O)c1cccc(C(=O)CSc2nc3ccccc3s2)c1

>  <log10(Kd)>
2.70

$$$$

Proceeding to the next compound to report its log10(Kd).
Q: Entry under review: `C=CCNc1nc(-c2ccc(S(N)(=O)=O)c(Cl)c2)cs1` . Reported log10(Kd)?
A: 3.04

Values from paper PMC6722136
